The measured values listed here are drawn from patent US9855270B2.

tested on: MCF-7 cells stably expressing UbC HA-ER-α L536P; test: cells; type: cell-based; details: Antagonist Mode, +E2, 5-Day Incubation
measure_name: Percent inhibition compared to vehicle (%)

- compound: "C[C@]12CC[C@@H]3c4ccc(O)cc4C[C@@H](CCCCCCCCC[S+]([O-])CCCC(F)(F)C(F)(F)F)[C@H]3[C@@H]1CC[C@@H]2O (stereo partly shown)"
  value_units: "%"
  recorded_result: 71
- compound: "CC/C(=C(/c1ccc(/C=C/C(=O)O)cc1)c1ccc2[nH]ncc2c1)c1ccc(F)cc1Cl"
  value_units: "%"
  recorded_result: 72
- compound: "CCC(=C(c1ccc(O)cc1)c1ccc(OCCN(C)C)cc1)c1ccccc1 [4-Hydroxytamoxifen]"
  value_units: "%"
  recorded_result: 61
- compound: "CC1=C(c2cccc(O)c2)[C@H](c2ccc(OCCN3CC(CF)C3)cc2)Oc2ccc(O)cc21"
  value_units: "%"
  recorded_result: 69

====

Measured EC50 accompanies every entry in the list below.
system: MCF-7 cells stably expressing EF1 HA-ER-α L536R; assay: cells; type: cell-based; conditions: Homo sapiens, MCF7, read-out: Potency (EC50; nM), EF1 HA-ER-α L536R; Antagonist Mode; −E2 (Table 27)

- compound: "C[C@]12CC[C@@H]3c4ccc(O)cc4C[C@@H](CCCCCCCCC[S+]([O-])CCCC(F)(F)C(F)(F)F)[C@H]3[C@@H]1CC[C@@H]2O (some centres unmarked) [Fulvestrant]"
  value_units: "nM"
  EC50: 6.29
- compound: "CC1=C(c2cccc(O)c2)[C@H](c2ccc(OCCN3CC(CF)C3)cc2)Oc2ccc(O)cc21 [Compound 4-23]"
  value_units: "nM"
  EC50: 11.3

====

system: MCF-7 cells (negative control); assay: MCF-7 Stable Cell Line Viability (UbC HA-ER-α series); type: cell-based; conditions: Homo sapiens, MCF7, Receptor None (MCF-7 negative control), Agonist Mode, −E2, read-out: Potency (EC50; nM)

- compound: "C[C@]12CC[C@@H]3c4ccc(O)cc4CC[C@H]3[C@@H]1CC[C@@H]2O [17β-Estradiol]"
  EC50: "0.279 nM"
- compound: "CC/C(=C(/c1ccc(/C=C/C(=O)O)cc1)c1ccc2[nH]ncc2c1)c1ccc(F)cc1Cl [Compound 1-3]"
  EC50: "0.603 nM"

====

Tested on: MCF-7 cells stably expressing EF1 HA-ER-α L536P
Test: cells
Assay type: cell-based
Details: EF1 HA-ER-α L536P; Antagonist Mode; +E2; Day 5 relative to Day 0
Excerpt: MCF-7 Mutant ER-α Stable Cell Line Generation: MCF-7 cells stably expressing wild-type or ER-α mutants were generated by subcloning ESR1 wild-type and mutant cDNAs containing an amino terminal hemagglutinin tag into pCDH-EF1-MCS-(PGK-Puro) (referred to as EF1 HA-ER-α) and pCDH-UbC-MCS-EF1-Hygro (referred to as UbC HA-ER-α) (System Biosciences). […]
measure_name: Efficacy (Emax)

- molecule: "CC1=C(c2cccc(O)c2)[C@H](c2ccc(OCCN3CC(CF)C3)cc2)Oc2ccc(O)cc21"
  target_system: "MCF-7 cells stably expressing EF1 HA-ER-α L536P"
  measure_name: "Efficacy (Emax)"
  recorded_result: 3.25
- molecule: "C[C@]12CC[C@@H]3c4ccc(O)cc4C[C@@H](CCCCCCCCC[S+]([O-])CCCC(F)(F)C(F)(F)F)[C@H]3[C@@H]1CC[C@@H]2O (some centres unmarked)"
  target_system: "MCF-7 cells stably expressing EF1 HA-ER-α L536P"
  measure_name: "Efficacy (Emax)"
  recorded_result: 3.65
- molecule: "CCC(=C(c1ccc(O)cc1)c1ccc(OCCN(C)C)cc1)c1ccccc1 [4-Hydroxytamoxifen]"
  target_system: "MCF-7 cells stably expressing EF1 HA-ER-α L536P"
  measure_name: "Efficacy (Emax)"
  recorded_result: 3.64
- molecule: "CC/C(=C(/c1ccc(/C=C/C(=O)O)cc1)c1ccc2[nH]ncc2c1)c1ccc(F)cc1Cl"
  target_system: "MCF-7 cells stably expressing EF1 HA-ER-α L536P"
  measure_name: "Efficacy (Emax)"
  recorded_result: 3.74
- molecule: "C[C@]12CC[C@@H]3c4ccc(O)cc4CC[C@H]3[C@@H]1CC[C@@H]2O"
  target_system: "MCF-7 cells stably expressing EF1 HA-ER-α L536P"
  measure_name: "Efficacy (Emax)"
  recorded_result: 9.07
